# credit: ChEMBL document CHEMBL3885861

Species on record: Rattus norvegicus
Experiment: Open TG-GATES - Regimen: Daily Repeat
Format: toxicity, organism-based, Sprague-Dawley
Parameters: regimen Daily Repeat, gender Male, age 6 weeks
Conditions: in vivo, po, 0 mg/kg, […], tissue Kidney, route gavage, dose level Control, time 14 day
Consider the following compounds and their measured KIDNEY_L readings.
Value expressed in g; do not type the unit.

Would you please look over these solved cases?
INSERT INTO measurements (compound, test_result) VALUES
  ('Oc1ncnc2[nH]ncc12 [ALLOPURINOL]', 1.2),
  ('O=C(N[C@H](CO)[C@H](O)c1ccc([N+](=O)[O-])cc1)C(Cl)Cl [CHLORAMPHENICOL]', 1.3),
  ('C[C@](N)(Cc1ccc(O)c(O)c1)C(=O)O [METHYLDOPA]', 1.1),
  ('CC(=O)Oc1cc(C(C)C)c(OCCN(C)C)cc1C [MOXISYLYTE]', 1.2);

Request: So what does the record say about KIDNEY_L for CCSCC[C@H](N)C(=O)O [ETHIONINE] ?
Result: 1.2

Request: Please do the same for C[C@]12CCC(=O)C=C1CC[C@@H]1[C@@H]2CC[C@@]2(C)[C@H]1CC[C@]2(C)O [METHYLTESTOSTERONE] as well.
Result: 1.2

Request: Please do the same for CCN1CCCC1CNC(=O)c1cc(S(N)(=O)=O)ccc1OC (configuration not stated) [SULPIRIDE] as well.
Result: 1.2
